These measurements were taken from patent US20140296131A1.

- subject.of.test: T1, human GLP-1 receptor (human, UniProt P43220 24-463)
- T1 construct: whole, on cells; Used as membrane preparations of BHK tk-ts13 cells, not as intact cells; also called cloned human GLP-1 receptor
- experiment.notes: SPA competition: displacement of 125I-GLP-1 from BHK tk-ts13 membranes with the human GLP-1 receptor
pIC50: −log10 of the molar value. Where no end group is shown, it is not given here.

| binder | pIC50 |
| --- | --- |
| HAEGTFTSDVSSYLEGQAAKEFIAWLV (ends and bridges not checked, also called truncated natural GLP-1; truncated natural GLP-1(7-3)) peptide) [truncated natural, human GLP-1(7-33)] | 6.62 |
